Recorded measurements of mean fluorescence intensity, one per entry
Target: T1, human CD47, full length, on transfected cells (human, UniProt Q08722 19-323)
T1 construct: whole, on cells; also called CHOK1-hCD47
Test: FACS CHOK1-hCD47; Ab 200 nM
Result type: mean fluorescence intensity

binder="95E2D10 (antibody, V domains shown, Murine hybridoma antibody purified on protein G) VH: QIQLQQSGPELVKPGASMKISCKASGYPFTDYYIHWVKQKPGQGLEWIGWIYPGSGNNKYNEKFKGKATLTVDTSPSTVYMQLSSLTSEDTAVYFCARRAGNYFDYWGQGTTLTVSS VL: NIVMTQSPKSMSRSVGERVTLSCRASENVRTYVFWYQQKPGLSPKLLIYGASNRYIGVPDRFTGSGSATDFTLTISSVQAEDLADYHCGQSYSYPLTFGAGTKLELK" result_type="mean fluorescence intensity" meas_value=15800
binder="51E2F11 (antibody, V domains shown, Murine hybridoma antibody purified on protein G) VH: EVQLQQSGAELVKPGASVKLSCTASGFNIKDHYIHWMNQRTEQGLEWIGRIDPDDGETRYAPKFRGKATLTADTSSNTAYLQFSSLTSEDTAVYHCTRATTITRDWYFDVWGTGTTVTVSS VL: DIVMTQSQKFMSTSVGDRVSITCKASQNVRTSVAWYQQKPGQSPKALIYLASNRHTGIPDRFTGSGSGTDFTLTIRNVQSEDLADYFCLQHWDYPLTFGAGTKLELK" result_type="mean fluorescence intensity" meas_value=14600
binder="25E3B5 (antibody, V domains shown, Murine hybridoma antibody purified on protein G) VH: QVQLQQPGTALVRPGSSVKLSCKASGYTFTSYWMHWVRQRPIKGLEWIGNIDPSDSETHYNQRFKDKVTLTVDKSSNTAYMQLSSLTSEDSAVYYCARWKYHGIGAMDYWGQGTSVTVSS VL: DVQITQSPSYLAASPGETVTISCRTNRNISKFLAWYQEKPGKTNKLLIYSGSTLHSGIPSRFSGSGSGTDFTLTISRLEPEDFAMYYCQQHNEYPWSFGGGTKLEIK" result_type="mean fluorescence intensity" meas_value=9420
binder="54G8G6 (antibody, V domains shown, Murine hybridoma antibody purified on protein G) VH: QVQLQQPGADLVKPGASVKMSCKASGYTFTSYWIIWVKQRPGQGLEWIGDINPGRGSPNYNEKFKRKATLTVDTSSSTAYMQLSSLTSEDSAVYYCVRGGLRRFDHWGQGTLVTVSA VL: ENVLTQSPAIMSASPGEKVTMTCRASSSVSSSYLHWYQQKSGASPKLWIYSTSTLASGVPARFSGSGSGTSYSLTISSVEAEDAATYYCQQYSGYPYTFGGGTKLEIK" result_type="mean fluorescence intensity" meas_value=16700
binder="132D1E5 (antibody, V domains shown, Murine hybridoma antibody purified on protein G) VH: QVQLQQPGAELVRPGSSVKLSCKASGYTFTNNWMHWVKQRPLQGLEWIGNIDPSDSETHYNQKFKDKATLTVDKSSTTAYIQLSSLTSEDSAVYYCARWRGGGRGAMDYWGQGTSVTVSS VL: DVQITQSPSYLAASPGETITINCRTSKNISKFLAWYQEKPGKTNKLLIYSGSTLQSGIPSRFSGSGSGTDFTLTISNLEPEDFAMYYCQQHNEYPWTFGRGTKLEIK" result_type="mean fluorescence intensity" meas_value=7100
